# Tested on: COLO 205 colon
# assay text: NCI tumour cell line growth inhibition, 48 h
parameter measured: TGI

{"molecule": "c1ccc(COc2cccc3cccnc23)cc1", "parameter measured": "TGI", "reading": "> 100 µM"}
{"molecule": "CN/N=C(\\C(=O)Nc1ccc([N+](=O)[O-])cc1[N+](=O)[O-])C1NC(=O)NC1=O (stereo unspecified)", "parameter measured": "TGI", "reading": "> 100 µM"}
{"molecule": "N[C@H](C(=O)O)[C@@H](Cl)CC(=O)O", "parameter measured": "TGI", "reading": "> 100 µM"}
{"molecule": "S=C(Nc1ccc2c(c1)Cc1ccccc1-2)Nc1ccc2c(c1)Cc1ccccc1-2", "parameter measured": "TGI", "reading": "> 100 µM"}
{"molecule": "O=C(O)Cc1cc(=O)[nH]c2c1C(=O)CCC2", "parameter measured": "TGI", "reading": "> 100 µM"}

Next, consider the following molecule.
Qu. Return TGI for the following molecule: CSc1ccccc1P(CCP(c1ccccc1SC)c1ccccc1SC)c1ccccc1SC
Ans. > 53 µM
